Below, each of the compounds is paired with its reported % cross reactivity value.
Tested on: antisera generated in response to immunogen of Example 11
Experiment: Competitive chemiluminescent biochip immunoassay, antisera raised against immunogen of Example 11, conjugate of Example 12
Type: binding, sheep
Conditions: biochip; relative to methylphenidate = 100
Report the figure in % without appending any unit label.

Below are worked cases with known answers.
[
  {
    "compound": "CN[C@@H](C)[C@@H](O)c1ccccc1.Cl [(+)-pseudoephedrine HCl]",
    "study-system": "antisera generated in response to immunogen of Example 11",
    "% cross reactivity, %": 0.2
  },
  {
    "compound": "COC(=O)C(c1ccccc1)C1CCCCN1 (stereo not drawn) [Methylphenidate, methylphenidate]",
    "study-system": "antisera generated in response to immunogen of Example 11",
    "% cross reactivity, %": 100
  },
  {
    "compound": "O=C(O)C(c1ccccc1)C1CCCCN1 (stereo not drawn)",
    "study-system": "antisera generated in response to immunogen of Example 11",
    "% cross reactivity, %": 1
  }
]

// switching to the query compound
Recorded % cross reactivity for CCOC(=O)[C@@H](c1ccccc1)[C@H]1CCCCN1.Cl (racemic) [rac-erythro-ethylphenidate HCl] , please?
1.9
